- Measured On: GST-PPARG-LBD (Homo sapiens, UniProt P37231)
- Construct: A mixture of 5 nM GST-PPARG-LBD; purchased Invitrogen
- Sequence (P37231 238-503 limits assumed): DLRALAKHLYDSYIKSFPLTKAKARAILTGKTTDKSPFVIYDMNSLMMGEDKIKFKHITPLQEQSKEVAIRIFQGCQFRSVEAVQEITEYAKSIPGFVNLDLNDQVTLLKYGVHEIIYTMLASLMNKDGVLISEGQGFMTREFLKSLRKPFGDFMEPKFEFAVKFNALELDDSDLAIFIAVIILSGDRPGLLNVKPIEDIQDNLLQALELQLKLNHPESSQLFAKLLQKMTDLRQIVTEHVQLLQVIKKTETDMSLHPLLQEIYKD
- Assay Summary: Lanthascreen PPARG competitive binding assay (Invitrogen)
- Experimental Setup: Table 3; read-out: IC50 (nM) Lantha
Reported Metric: IC50

INSERT INTO assay_data (line_notation, reported_metric, reported_measurement) VALUES
  ('COCCOCc1ccc2c(c1)ncn2Cc1ccc(Cl)cc1', 'IC50', '13700 nM'),
  ('CCOCCNC(=O)c1ccc2c(c1)ncn2Cc1ccc(Cl)cc1', 'IC50', '3710 nM'),
  ('CCCCNC(=O)c1ccc2c(c1)ncn2Cc1ccc(Cl)cc1', 'IC50', '1420 nM'),
  ('COCCNC(=O)c1ccc2c(c1)ncn2Cc1ccc(Cl)cc1', 'IC50', '6360 nM'),
  ('CC(C)c1cccc([C@@H](C)NC(=O)c2ccc3c(c2)ncn3Cc2ccc(Cl)cc2)c1', 'IC50', '162 nM'),
  ('O=C(NCC[C@H]1CCO1)c1ccc2c(c1)ncn2Cc1ccc(Cl)cc1', 'IC50', '6770 nM'),
  ('CC(C)c1cccc([C@H](C)NC(=O)c2ccc3c(c2)ncn3Cc2ccc(Cl)cc2)c1', 'IC50', '4400 nM');
